Recorded Percent Effect values for a group of molecules are listed next.
# Target: Tyrosyl-tRNA synthetase, putative (Trypanosoma cruzi (strain CL Brener))
# Measurement Notes: Trypanosoma cruzi tyrosyl tRNA synthetase (TcYRS) SOP
# Assay type: functional
# Set-up: scale not given: direction of the effect not stated beside the values
# Study Conditions: 30 µM
Enter your answer as a number in %; do not include the unit.

# Molecule, Percent Effect, %
measured = [
    ("O=C(Cc1cccc(F)c1)NCCNCc1ccc2c(c1)CCO2", 19.5),
]

Any idea what Percent Effect came out for CCSc1cc(C(=O)NCCC(=O)Nc2ccccn2)ccn1 on Tyrosyl-tRNA synthetase, putative (Trypanosoma cruzi (strain CL Brener))?
17.5

====

Entries and their Percent Effect values follow.
# Target: Sialic acid-binding Ig-like lectin 9 (Homo sapiens)
# Measurement Notes: Hs-Siglec9 ALPHAscreen SOP 20170721
# Design: scale not given: direction of the effect not stated beside the values
# Study Conditions: 10 µM
Could you give me the number in %? Just the number is fine.

# Compound, Target, Percent Effect, %
rows = [
    ("CCN(CC1CCCO1)C(=O)Nc1ccc(F)cc1OC (stereo not drawn)", "Sialic acid-binding Ig-like lectin 9 (Homo sapiens)", 10.6),
    ("COc1ccc(C(=O)N2Cc3c(Cn4ccnc4)nn(C)c3C2)cc1", "Sialic acid-binding Ig-like lectin 9 (Homo sapiens)", -5.42),
    ("Cc1ccsc1[C@@H]1CCN(C(=O)CCC(=O)N2CCCCCC2)C[C@H]1O", "Sialic acid-binding Ig-like lectin 9 (Homo sapiens)", -3.16),
    ("CCCN(CC1COc2ccccc2O1)C(=O)CCn1cncn1 (stereo not drawn)", "Sialic acid-binding Ig-like lectin 9 (Homo sapiens)", -1.88),
    ("COCc1nc(CN2CCC3(CCCO3)CCC2=O)no1 (stereo not drawn)", "Sialic acid-binding Ig-like lectin 9 (Homo sapiens)", 6.25),
    ("CNS(=O)(=O)Cc1ccc(CNc2cncc(-n3cccn3)n2)cc1", "Sialic acid-binding Ig-like lectin 9 (Homo sapiens)", 6.42),
]

Fill in: Percent Effect of CNS(=O)(=O)c1ccc(C(=O)NC2CCOc3ccccc32)o1 (stereo not drawn) is ___
1.37

Please report the recorded Percent Effect for CC(C)COC(C)C(=O)N1CCN(S(C)(=O)=O)CC1 (stereo not drawn) .
2.29

====

# Target: Arginase-2, mitochondrial (Homo sapiens) (UniProt P78540)
# Sequence (P78540 whole entry): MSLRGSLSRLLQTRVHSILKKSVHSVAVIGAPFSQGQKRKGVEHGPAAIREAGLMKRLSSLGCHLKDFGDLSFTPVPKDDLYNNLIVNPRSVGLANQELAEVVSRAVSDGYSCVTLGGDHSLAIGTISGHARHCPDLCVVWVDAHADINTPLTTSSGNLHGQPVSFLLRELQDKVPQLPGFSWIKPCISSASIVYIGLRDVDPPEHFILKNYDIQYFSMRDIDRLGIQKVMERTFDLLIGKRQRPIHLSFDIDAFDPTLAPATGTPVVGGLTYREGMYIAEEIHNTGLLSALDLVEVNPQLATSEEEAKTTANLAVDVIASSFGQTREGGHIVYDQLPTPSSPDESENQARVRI
# Measurement Notes: in vitro enzyme assay to detect the production of urea directly proportional to the activity of Arginase II; also: in the data most compounds retested in dose-response had high values
# Format: functional
# Set-up: scale not given: direction of the effect not stated beside the values
# Study Conditions: 33.3 µM
Measurement Type: Percent Effect (%)
Please reply with the bare figure in % and do not write the unit itself.

Here are 10 compounds together with their reported answers.
# Compound, Target, Measurement Units, Percent Effect
measured = [
    ("COCCN(Cc1nc2c(cnn2C)c(=O)[nH]1)Cc1ccco1", "Arginase-2, mitochondrial (Homo sapiens) (UniProt P78540)", "%", 5.61),
    ("COCCc1noc(CNC2CCCN(c3cccnn3)C2)n1 (stereo not given)", "Arginase-2, mitochondrial (Homo sapiens) (UniProt P78540)", "%", 11),
    ("CC(C)c1noc(CCCC(=O)N2CCN(Cc3ccncc3)CC2)n1", "Arginase-2, mitochondrial (Homo sapiens) (UniProt P78540)", "%", -6.84),
    ("O=C(CCc1cccnc1)N(Cc1ccsc1)CC1CCCO1 (stereo not given)", "Arginase-2, mitochondrial (Homo sapiens) (UniProt P78540)", "%", 1.91),
    ("c1cnc(N2CCC3(CCN(Cc4ccncc4)CC3)CC2)nc1", "Arginase-2, mitochondrial (Homo sapiens) (UniProt P78540)", "%", -4.14),
    ("Cc1cnn(C2CCCN(C(=O)CCCNc3ncccn3)C2)c1 (stereo not given)", "Arginase-2, mitochondrial (Homo sapiens) (UniProt P78540)", "%", 0),
    ("CC(C)c1nc(C2CCCN2CCc2ccncc2)no1 (stereo not given)", "Arginase-2, mitochondrial (Homo sapiens) (UniProt P78540)", "%", -0.356),
    ("CN1CCN(C(=O)NC2CC2)Cc2cccnc21", "Arginase-2, mitochondrial (Homo sapiens) (UniProt P78540)", "%", -23.5),
    ("Cc1cc(C)n(C2CN(CC(=O)NC3CCOCC3)C2)n1", "Arginase-2, mitochondrial (Homo sapiens) (UniProt P78540)", "%", -1.94),
    ("CC(NC(=O)Cn1cccn1)c1ccc2c(c1)OCCCO2 (stereo not given)", "Arginase-2, mitochondrial (Homo sapiens) (UniProt P78540)", "%", 3.92),
]

Quick check: Percent Effect on Arginase-2, mitochondrial (Homo sapiens) (UniProt P78540), item CCCc1nc(C)cc(N2CCC3(CCC(=O)N(CCOC)C3)CC2)n1 ?
-0.744

Missing value: Percent Effect, Arginase-2, mitochondrial (Homo sapiens) (UniProt P78540), entry O=C(CCCOc1ccc(F)cc1F)N1CCCC1Cn1cccn1 (stereo not given) . Fill in?
1.8

Give the reported Percent Effect for Cc1cc(C)c2c(c1)C1(CC(=O)Nc3c1cnn3C(C)C)C(=O)N2 (stereo not given) (system: Arginase-2, mitochondrial (Homo sapiens) (UniProt P78540)).
-6.16

Give Arginase-2, mitochondrial (Homo sapiens) (UniProt P78540) Percent Effect for CSc1ncccc1C(=O)NCc1ccc(CS(=O)(=O)NC(C)C)cc1
3.23

Record lookup: for Arginase-2, mitochondrial (Homo sapiens) (UniProt P78540), what Percent Effect belongs to Cn1ncc2c1C(COCC1CC1)CN(Cc1ccoc1)C2 (stereo not given) ?
9.87
